Target: T1, full length human tau protein 2N4R (hT40) (human, UniProt P10636 1-758)
T1 construct: recombinant; also called T441
T1 sequence (P10636 other isoform, or with tags, fused parts or gaps limits assumed): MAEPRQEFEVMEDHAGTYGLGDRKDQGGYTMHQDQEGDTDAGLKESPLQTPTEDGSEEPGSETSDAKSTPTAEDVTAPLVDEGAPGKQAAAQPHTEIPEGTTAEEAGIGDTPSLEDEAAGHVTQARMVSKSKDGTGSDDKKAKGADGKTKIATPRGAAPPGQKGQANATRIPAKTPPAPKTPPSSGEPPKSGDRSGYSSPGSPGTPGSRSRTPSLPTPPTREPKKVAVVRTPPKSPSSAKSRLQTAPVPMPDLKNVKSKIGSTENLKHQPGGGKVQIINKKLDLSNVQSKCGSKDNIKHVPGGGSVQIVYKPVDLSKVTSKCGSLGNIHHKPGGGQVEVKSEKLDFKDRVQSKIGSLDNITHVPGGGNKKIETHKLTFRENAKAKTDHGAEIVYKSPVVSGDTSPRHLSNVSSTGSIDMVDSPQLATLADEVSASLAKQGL
Assay: SPR, hT40 immobilised, mAb analyte
QUANTITY MEASURED: koff (s⁻¹)
Give the value in s⁻¹ but do not write s⁻¹ after it.

Illustrative cases are given below, each with its answer.
BINDER: 3aG3 mAb (antibody, V domains shown) VH: QVQLQESGPSLVKPSQTLSLTCTVSGFSLSSNGVGWVRQAPGKVPEWVGDISSSGKAYANPALKSRLSITRDTAKTQVFLSLSSVTTEDTAVYYCVRCRDGGVSYGYDIDYWGPGLLVTVSS VL: QAVLTQPPSVSGSPGQRVSITCSGSSSNIGGGNYLSWFQQVPGSAPKLLIYGATSRASGVPDRFSGSRSGNTATLTISSLQAEDEADYYCASFDTSSGGIFGAGTRLTVLG
MEASUREMENT UNIT: s⁻¹
koff: 0.00475
--
BINDER: MD9 mAb (antibody, V domains shown) VH: QVRLQESGPSLVKSSQTLSLTCTVSGFSLTRESIAWVRQAPGKVPEWLGGVGIDGTSYYSPALKSRLSITRDTSKSQASLSLSSVATEDTAMYYCARNYIDFEYWGPGLLVTVSS VL: QAVLTQLSSVSGSLGQRISITCSGSSSNVGIYDVSWFQQLPGSGLRTVIYGTNNRPSGVPDRFSGSRSGNTATLTISSLQSEDEAIYYCAAGDSSTIAVFGSGTRLTVLG
MEASUREMENT UNIT: s⁻¹
koff: 0.00146
--
BINDER: 3bD11 mAb (antibody) RVRLQGSGPSLVKPSQTLSLTCTVSGFSFDSYYVGWVRQAPGKALEWLGNIYSTGRAFYNPALKSRLSITRDTSKSQVSLSVSSVTIEDTALYYCVRGSYYHGGGNGMVDFFDYWSPGLLVTVSSEGKSSGASGESKVDDQVVRTQPSSVSGSLGQRVSITCSGSSSNVGYGNYVGWFQQVPGSAPKLLIYAATSRASGVPDRFSGSRSGNTATLTIDSLQAEDEADYYCSSYQRGNTGVFGSGTRLTVLG
MEASUREMENT UNIT: s⁻¹
koff: 0.00398

The value of koff measured for the binder 3bG4 mAb (antibody, mouse IgG2a, V domains shown, sheep-mouse IgG2a chimeric mAb) VH: QVQLQESGPSLVKPSQTLSLTCTISGFSLISNGVGWVRQAPGKVPEWVGDIASSGKAYSNPALKSRLSITRDTSKSQVSLSLRSVTTEDTAVYYCVRCRDGGVTYGYDIDYWGPGLLVTVSS VL: QAVLTQPSSVSKSLGQSVSITCSGSTSNVGSGNDVSWFQQVPGSAPKLLFYGATNRASGVPDRFSGSRSGNTATLTITSLQAEDEADYYCGSYDSNSGGIFGSGTRLTVLG turned out to be 0.000296

This collection of values is drawn from patent US20250355001A1.
